# Target Under Test: CPXV ortholog of D8 (cowpox virus)
# Method: cell-based or functional assay
Measurement Type: PRNT Emax, CPXV MV+C' (%)
The reply should contain only the number, in %.

Prompt: Given the binder VACV-8 (antibody, V domains shown) VH: QVQLQQWGAGLLKPSETLSLTCAGYGGSFSGYFWSWIRQPPGKGLEWIGEINHSGSTDYNPSLKSRVTISLDTSKTQFSLKLSSVTAADTAVYYCARVMTGITNYYYYYGMDVWGQGTTVTF VL: DIQLTQSPSFLSASVGDRVTITCRASQDISSYLAWYQQKPGKAPKLLIYAASTLQSGVPSRFSGSESGTEFTLTISSLQPENFATYYCQHLNSYPRGYTFGQGTKVDIK , write its reported PRNT Emax, CPXV MV+C'.
Completion: 58
